# assay-target: T1, Rat RGMa (rat) (UniProt D4A188)
# T1 sequence: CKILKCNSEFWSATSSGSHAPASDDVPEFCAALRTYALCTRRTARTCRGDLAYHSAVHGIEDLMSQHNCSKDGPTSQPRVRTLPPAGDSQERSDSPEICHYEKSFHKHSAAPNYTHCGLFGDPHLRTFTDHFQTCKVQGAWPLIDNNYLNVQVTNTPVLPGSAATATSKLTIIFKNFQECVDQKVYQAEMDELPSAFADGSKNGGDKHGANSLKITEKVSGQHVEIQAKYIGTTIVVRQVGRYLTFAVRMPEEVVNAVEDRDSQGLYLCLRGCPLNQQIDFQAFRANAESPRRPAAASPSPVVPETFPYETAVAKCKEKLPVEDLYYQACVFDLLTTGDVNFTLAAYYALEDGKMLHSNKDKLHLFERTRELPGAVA
# assay-method-text: BIAcore; Ab captured via anti-hIgG Fc on CM5 chip, antigen injected; 1:1 Langmuir fit
Reported kon values for the following binders.
// note: answer is a bare numeric in M⁻¹ s⁻¹

• RGMA-h5F9pJP302/pJP303 hIgG1/K mut (antibody, V domains shown, Tested as IgG; also called h5F9.AM11; H5F9AM.11) VH: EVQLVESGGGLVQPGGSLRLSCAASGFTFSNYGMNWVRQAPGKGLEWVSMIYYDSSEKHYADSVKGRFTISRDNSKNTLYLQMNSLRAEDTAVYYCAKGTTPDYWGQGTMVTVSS VL: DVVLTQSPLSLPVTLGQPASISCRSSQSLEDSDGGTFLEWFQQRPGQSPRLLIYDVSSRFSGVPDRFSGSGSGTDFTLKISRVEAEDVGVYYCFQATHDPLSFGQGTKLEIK = 700000

# ---- query binder ----
Enquiry: Name the reported kon value associated with the binder RGMA-h5F9pJP297/pJP298 hIgG1/K mut (antibody, V domains shown, Tested as IgG; also called h5F9.AM8; H5F9AM.8) VH: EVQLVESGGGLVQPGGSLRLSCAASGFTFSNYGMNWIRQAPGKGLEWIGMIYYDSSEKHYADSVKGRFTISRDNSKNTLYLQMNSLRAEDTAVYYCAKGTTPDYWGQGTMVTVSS VL: DVVLTQSPLSLPVTLGQPASISCRSSQSLEESDGYTFLHWFQQRPGQSPRLLIYEVSTRFSGVPDRFSGSGSGTDFTLKISRVEAEDVGVYYCFQATHDPLTFGQGTKLEIK
Return: 660000
